Values compiled from patent US12570675B2.

Measured pIC50 by item
# target.under.test: Proteasome chymotrypsin-like activity (S26 protein from RPMI8226 cells) (Homo sapiens, UniProt P28074)
# Sequence (P28074 60-263 limits assumed): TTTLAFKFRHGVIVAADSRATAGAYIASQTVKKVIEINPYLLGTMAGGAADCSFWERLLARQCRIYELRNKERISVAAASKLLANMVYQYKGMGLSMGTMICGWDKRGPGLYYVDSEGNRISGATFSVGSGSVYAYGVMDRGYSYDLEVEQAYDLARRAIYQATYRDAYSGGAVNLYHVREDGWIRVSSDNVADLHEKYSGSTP
# Assay type: biochemical
# test.settings: S26 protein from RPMI8226 cell extract 2 ug/well, substrate 20 uM, 37° C., 90 minutes; read-out: Proteasome chymotrypsin-like activity inhibition IC50
pIC50: −log10 of the molar value.

Look over these answered cases.
- compound: "CC(C)C[C@H](NC(=O)C1CC(c2ccc3ncccc3c2)=NO1)B(O)O (stereo partly drawn) [Example 30]"
  pIC50: "> 6.00"
- compound: "CC(C)C[C@H](NC(=O)C1(Cc2ccccc2)CC(CNC(=O)c2cccc3ncccc23)=NO1)B(O)O (stereo partly drawn) [Example 116]"
  pIC50: "> 8.00"
- compound: "CC(C)C[C@H](NC(=O)C1(CC(C)C)CC(CNC(=O)c2cc(Cl)ccc2Cl)=NO1)B(O)O (stereo partly drawn) [Example 90]"
  pIC50: "> 7.60"

Query :: Look at this compound and give its reported pIC50. CC(C)C[C@H](NC(=O)C1(C)CC(c2ccccc2)=NO1)B(O)O (stereo partly drawn) [Example 5]
Result :: < 6.00

Query :: Look at this compound and give its reported pIC50. CC(C)C[C@H](NC(=O)C1(C(C)c2ccccc2)CC(CNC(=O)c2nccc3ccccc23)=NO1)B(O)O (stereo partly drawn) [Example 136]
Result :: > 8.00

Query :: Look at this compound and give its reported pIC50. CC(C)C[C@H](NC(=O)C1(Cc2ccccc2C(F)(F)F)CC(CNC(=O)c2nccc3ccccc23)=NO1)B(O)O (stereo partly drawn) [Example 167]
Result :: > 8.00

Query :: Look at this compound and give its reported pIC50. CC(C)C[C@H](NC(=O)C1(Cc2ccccc2)CC(CNC(=O)c2cc(C(F)(F)F)ccc2Cl)=NO1)B(O)O (stereo partly drawn) [Example 112]
Result :: > 8.00

Query :: Look at this compound and give its reported pIC50. CC(C)C[C@H](NC(=O)C1(Cc2ccccc2)CC(CNC(=O)C2(c3ccccc3)CC2)=NO1)B(O)O (stereo partly drawn) [Example 118]
Result :: > 7.60

Query :: Look at this compound and give its reported pIC50. CC(C)C[C@H](NC(=O)C1CC(CNC(=O)c2nccc3ccccc23)=NO1)B(O)O (stereo partly drawn) [Example 61]
Result :: > 8.00

Query :: Look at this compound and give its reported pIC50. CC(C)C[C@H](NC(=O)C1CC(Cc2ccc3ccccc3c2)=NO1)B(O)O (stereo partly drawn) [Example 18]
Result :: > 6.30

Query :: Look at this compound and give its reported pIC50. CC(C)C[C@H](NC(=O)C1(Cc2ccccc2)CC(CNC(=O)c2cccc3[nH]ccc23)=NO1)B(O)O (stereo partly drawn) [Example 127]
Result :: > 8.00

Query :: Look at this compound and give its reported pIC50. CC(C)C[C@H](NC(=O)C1CC(CNC(=O)c2cc(Cl)ccc2Cl)=NO1)B(O)O (stereo partly drawn) [Example 68]
Result :: > 8.00
